Attribution: PubChem BioAssay AID1963446

tested on: 993429-296-R-J1-PDC complex spheroid growth, percent test/control; test: Anticancer human tumor 993429-296-R-J1-PDC patient-derived uterine sarcoma cell line growth inhibition [Asc]; conditions: second compound 1 µM; first compound 0.01 µM; hits give low values;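 note: spheroids exposed to compounds for seven days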
PROPERTY: viability, T/C (%)
Answer format: numeric, % implied, no suffix.

Some compounds with known viability, T/C results, for comparison:
COMPOUND	TGT	viability, T/C (%)
CCN1CCN(Cc2ccc(Nc3ncc(F)c(-c4cc(F)c5nc(C)n(C(C)C)c5c4)n3)nc2)CC1 + Cc1c(S(C)(=O)=O)c(-c2cc(F)cc(N3CCN(c4ccc(NS(=O)(=O)c5ccc(NC(CCN6CCC(C(=O)OCCCP(=O)(O)O)CC6)CSc6ccccc6)c(S(=O)(=O)C(F)(F)F)c5)cc4)CC3)c2)c(-c2ccc(Cl)cc2)n1C(C)C	993429-296-R-J1-PDC complex spheroid growth, percent test/control	52.4
CCN1CCN(Cc2ccc(Nc3ncc(F)c(-c4cc(F)c5nc(C)n(C(C)C)c5c4)n3)nc2)CC1 + CNC(C)C(=O)NC1CN(S(=O)(=O)c2cccc(S(=O)(=O)N3CCC4CCC(C(=O)NC(c5ccccc5)c5ccccc5)N4C(=O)C(NC(=O)C(C)NC)C3)c2)CCC2CCC(C(=O)NC(c3ccccc3)c3ccccc3)N2C1=O	993429-296-R-J1-PDC complex spheroid growth, percent test/control	58.7

Now for a further compound.
Recorded viability, T/C of O=C(c1ccc(F)c(F)c1Nc1ccc(I)cc1F)N1CC(O)([C@@H]2CCCCN2)C1 + Cc1c(S(C)(=O)=O)c(-c2cc(F)cc(N3CCN(c4ccc(NS(=O)(=O)c5ccc(NC(CCN6CCC(C(=O)OCCCP(=O)(O)O)CC6)CSc6ccccc6)c(S(=O)(=O)C(F)(F)F)c5)cc4)CC3)c2)c(-c2ccc(Cl)cc2)n1C(C)C , please.
30.8
